Listed compounds paired with reported IC50
Protein target, amino acids: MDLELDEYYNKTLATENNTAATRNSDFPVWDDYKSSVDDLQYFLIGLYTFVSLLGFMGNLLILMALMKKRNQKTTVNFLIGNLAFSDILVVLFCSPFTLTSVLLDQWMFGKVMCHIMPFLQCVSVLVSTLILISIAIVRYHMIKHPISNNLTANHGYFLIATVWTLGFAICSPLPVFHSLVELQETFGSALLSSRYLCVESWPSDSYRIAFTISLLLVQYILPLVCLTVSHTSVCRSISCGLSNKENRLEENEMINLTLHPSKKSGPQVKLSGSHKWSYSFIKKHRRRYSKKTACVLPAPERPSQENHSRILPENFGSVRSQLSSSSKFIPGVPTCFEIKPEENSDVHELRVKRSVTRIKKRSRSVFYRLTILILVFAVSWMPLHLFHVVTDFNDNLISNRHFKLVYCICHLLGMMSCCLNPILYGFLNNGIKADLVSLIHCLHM

{"Compound": "CCS(=O)(=O)N(C)C1CCC(N(C)C(=O)Nc2ccc3c(c2)oc(=O)n3C(C)C)CC1 (centres unmarked)", "Unit": "nM", "IC50": 1.85}
{"Compound": "CC(C)n1c(=O)oc2cc(NC(=O)N[C@H]3CC[C@H](NS(=O)(=O)C(C)(C)C)CC3)ccc21", "Unit": "nM", "IC50": 0.55}
